Test: Stability in SGF
Type: in vitro ADME

{"columns": ["COMPOUND", "Stability in SGF"],
 "data": [
  ["CCCCC(Cc1c[nH]c2ccccc12)NC(=O)c1cnc(N2CCN(C)CC2)s1 (centres unmarked) [Example 1]", "stable"],
  ["CN1CCN(CCc2ncc(C(=O)NCCc3c[nH]c4ccccc34)s2)CC1 [Example 4]", "stable"],
  ["CCCCNC(=O)C(Cc1c[nH]c2ccccc12)NC(=O)c1cnc(N2CCNCC2)s1 (centres unmarked) [Comp. A, reference compound]", "stable"],
  ["CCCCC(Cc1c[nH]c2ccccc12)NC(=O)c1cnc(CCN2CCN(C)CC2)s1 (centres unmarked) [Example 5]", "stable"]
]}

Source of measurements: patent US11078196B2
